- TESTED_TARGET: T1, cynomolgus soluble urokinase plasminogen activator receptor (suPAR) (cynomolgus, UniProt Q9GK78 23-303, limits assumed)
- T1 construct: Target antigen of the scFv off-rate screen; also called cynomolgus suPAR; cynomolgus uPAR
- T1 sequence (Q9GK78 23-303 limits assumed): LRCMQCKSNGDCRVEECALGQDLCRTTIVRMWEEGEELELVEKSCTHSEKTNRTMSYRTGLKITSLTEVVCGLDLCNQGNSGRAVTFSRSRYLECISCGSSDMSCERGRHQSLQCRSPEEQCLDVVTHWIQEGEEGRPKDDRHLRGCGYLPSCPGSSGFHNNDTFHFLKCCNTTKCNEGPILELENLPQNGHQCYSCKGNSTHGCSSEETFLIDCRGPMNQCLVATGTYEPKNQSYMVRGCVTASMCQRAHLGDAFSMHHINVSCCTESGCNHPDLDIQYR
- ASSAY_EXPLANATION: BLI (Octet) off-rate screen of scFv clones
REPORTED_METRIC: koff (s⁻¹)
Numbers only here, please. The scale is s⁻¹.

1) suPAR_DB06_F02 (scFv, V domains shown) VH: QVQLVQSGAEVKKPGASVKVSCKASGYTFTNYYMHWVRQAPGQGLEWMGWIDHENGSTSYDQKFQGRVTMTRDTSTSTVYMELSSLRSEDTAVYYCARGYDVDWFVYWGQGTLVTVSS VL: DIQMTQSPSSLSASVGDRVTITCRARQSVSYMYWYQQKPGKAPKLLIYRTSNLASGVPSRFSGSGSGTDFTLTISSLQPEDFATYYCQQYHSYPPTFGGGTKVEIK; 0.000258

Any idea what its koff is? The binder is suPAR_DB06_E01 (scFv, V domains shown) VH: QVQLVQSGAEVKKPGASVKVSCKASGFNFKDYYIHWVRQAPGQGLEWMGWMDPSSGNTAYAQKFQGRVTMTRDTSTSTVYMELSSLRSEDTAVYYCARGYDVDWFVYWGQGTLVTVSS VL: DIQMTQSPSSLSASVGDRVTITCSARQSISYMYWYQQKPGKAPKLLIYRTSNLASGVPSRFSGSGSGTDFTLTISSLQPEDFATYYCQQYHSYPPTFGGGTKVEIK
0.000126

Any idea what its koff is? The binder is suPAR_DB06_E04 (scFv, V domains shown) VH: QVQLVQSGAEVKKPGASVKVSCKASGDTFSSYYMHWVRQAPGQGLEWMGWIDHENGNTIYDQKFQGRVTMTRDTSTSTVYMELSSLRSEDTAVYYCARGYDMDWFVYWGQGTLVTVSS VL: DIQMTQSPSSLSASVGDRVTITCRARSSVSYMYWYQQKPGKAPKLLIYRTSNLQSGVPSRFSGSGSGTDFTLTISSLQPEDFATYYCQQYHSYPPTFGGGTKVEIK
0.000388
